Measured values drawn from patent US11414384B2 for this set.

Quick reference for IC50 among some compounds
# assay target: p300 HAT domain (residues 1287-1666) (Homo sapiens (Human), UniProt Q09472)
# Sequence (Q09472 1287-1666): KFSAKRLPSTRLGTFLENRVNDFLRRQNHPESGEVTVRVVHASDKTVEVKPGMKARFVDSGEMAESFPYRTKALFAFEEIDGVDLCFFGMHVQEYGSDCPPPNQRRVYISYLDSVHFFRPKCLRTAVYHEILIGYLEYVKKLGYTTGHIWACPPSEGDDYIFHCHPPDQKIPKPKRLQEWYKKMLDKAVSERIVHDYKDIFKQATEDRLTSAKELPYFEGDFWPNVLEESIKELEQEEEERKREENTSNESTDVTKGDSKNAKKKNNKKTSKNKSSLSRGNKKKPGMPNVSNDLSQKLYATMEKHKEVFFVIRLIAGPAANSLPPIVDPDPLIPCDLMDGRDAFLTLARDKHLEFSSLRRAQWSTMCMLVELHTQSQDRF
# experimental protocol: p300 HAT SPA assay (scintillation proximity assay, acetylation of biotinylated H3(1-21) peptide)
# Format: biochemical
# measurement setup: p300 HAT domain; average of at least 2 replicate titrations; read-out: P300 HAT SPA IC50

compound	recorded result
COc1ccccc1CCNC(C(=O)c1c[nH]c2ccccc12)c1ccccc1 (single isomer, unassigned) [6 Isomer 1]	> 60 µM
CC(CNC(C(=O)c1c[nH]c2ccccc12)c1ccccc1)c1ccc(Cl)cc1 (single isomer, unassigned) [26 Isomer 1]	> 30 µM

The compound Cn1cc(-c2ccc3c(C(=O)C(NCCc4ccc(F)cc4F)c4ccccc4)c[nH]c3c2)cn1 (single isomer, unassigned) [85 Isomer 1] on p300 HAT domain (residues 1287-1666) (Homo sapiens (Human), UniProt Q09472): IC50 was > 30 µM

The measured IC50 that CNC(=O)c1ccc(CCNC(C(=O)c2c[nH]c3ccccc23)c2ccccc2)cc1 (single isomer, unassigned) [134 Isomer 1] showed for p300 HAT domain (residues 1287-1666) (Homo sapiens (Human), UniProt Q09472) is > 60 µM

Measured IC50 for this entry CNC(=O)c1ccc2c(C(=O)C(NCCc3ccc(C#N)cc3)c3ccccc3)c[nH]c2n1 (single isomer, unassigned) [67 Isomer 2] on p300 HAT domain (residues 1287-1666) (Homo sapiens (Human), UniProt Q09472): > 5 µM

Form field, IC50 with p300 HAT domain (residues 1287-1666) (Homo sapiens (Human), UniProt Q09472), item NC(=O)c1ccc(CCNC(C(=O)c2c[nH]c3cc(-c4cnn(CCO)c4)ccc23)c2ccccc2)cc1 (single isomer, unassigned) [182 Isomer 1] : > 5 µM

Readout IC50 for COCCNC(=O)c1cccc2c(C(=O)C(NCCc3ccc(Cl)cc3Cl)c3ccccc3)c[nH]c12 (single isomer, unassigned) [150 Isomer 2] , test system p300 HAT domain (residues 1287-1666) (Homo sapiens (Human), UniProt Q09472), was > 30 µM

Test item O=C(c1c[nH]c2ccccc12)C(NCCc1ccc(Cl)cc1Cl)c1ccccc1 (single isomer, unassigned) [19 Isomer 1] ; p300 HAT domain (residues 1287-1666) (Homo sapiens (Human), UniProt Q09472); reported IC50 was > 60 µM

----------
# assay target: p300 HAT domain (residues 1287-1666) (Homo sapiens (Human), UniProt Q09472)
# experimental protocol: p300 HAT SPA assay (scintillation proximity assay, acetylation of biotinylated H3(1-21) peptide)
# Format: biochemical
# measurement setup: p300 HAT domain; average of at least 2 replicate titrations; read-out: P300 HAT SPA IC50
pIC50: −log10 of the molar value.
assay metric: pIC50

compound	pIC50
CC(NCCc1ccc(Cl)cc1)C(=O)c1c[nH]c2ccccc12 (single isomer, unassigned) [23 Isomer 1]	< 4.22

response.value for Cc1ccc(-c2ccc3c(C(=O)C(NCCc4ccc(Cl)cc4)c4ccccc4)c[nH]c3c2)cn1 (single isomer, unassigned) [88 Isomer 1] (field: pIC50) = < 4.52

# pIC50 (compound: O=C(c1c[nH]c2ccccc12)[C@@H](NCCc1ccc(-c2nn[nH]n2)cc1)c1ccccc1 (single isomer, unassigned) [185 Isomer 2] ) is < 4.52

# compound Cc1ccc2c(C(=O)C(NCCc3ccc(S(N)(=O)=O)cc3)c3ccccc3)c[nH]c2c1 (single isomer, unassigned) [56 Isomer 1] ; its pIC50 = < 4.22

Quick note, pIC50 for O=C(c1c[nH]c2ccccc12)C(NCCc1ccc(F)cc1)c1ccccc1 (single isomer, unassigned) [22 Isomer 1] landed at < 4.22

The measured pIC50 associated with COc1ccc(CCN[C@H](C(=O)c2c[nH]c3c(C(C)C)cccc23)c2ccccc2)cc1 (single isomer, unassigned) [145 Isomer 2] reads < 4.22

The recorded pIC50 for Cc1cccc2c(C(=O)C(NC(C)Cc3ccc(Cl)cc3Cl)c3ccccc3)c[nH]c12 (single isomer, unassigned) [68 Isomer 4] is < 4.52
